System: OVCAR-3 ovarian
Protocol Notes: NCI tumour cell line growth inhibition, 48 h
Measured Property: TGI

Req: What does the data say about its TGI? Entry: COC(=O)c1cc2c(cc1CC(Cc1ccc3c(c1)CCCC3)C(=O)OC)CCCC2 (stereo not given)
Resp: > 100 µM

Req: And `COCc1nc2c(OC)c(-c3nc4nc(N5CCN(C)CC5)ccc4[nH]3)cc(OC)c2n1C` ?
Resp: > 100 µM

Req: Quick one: `COc1c(C(=O)/C=C/c2ccccc2)c(O)cc2occc12`
Resp: 11.3 µM

Req: Moving on to the next compound: CC(CC[C@@]1(C)C(=O)CCC2O[C@]21C)[C@H]1C[C@@H](c2ccoc2)OC1=O (stereo not given in full)
Resp: 66.1 µM

Req: Entry `COc1ccc(/C=C/c2c(C(=O)/C=C/c3ccccc3)c(C)nc3ccccc23)cc1` please
Resp: 3.12 µM

Req: Ok, now `C/C(=N/NC(N)=S)c1ccc[nH]1`
Resp: > 100 µM

Req: Same thing, different compound: `Cc1ccc([N+](=O)[O-])c2c(NCCC[N+](C)(C)[O-])c3ccccc3nc12`
Resp: > 41.3 µM

Req: Please give the result for `CC(C)c1ccc(-c2cc(-c3cn[nH]c3-c3ccccn3)ccn2)cc1` too.
Resp: > 25 µM

Req: Do the same for `N#C/C(=C/NC(N)=S)C(N)=O` please
Resp: > 100 µM

Req: Moving on to `O=C(Nc1n[nH]c2cc(-c3ccccc3)ccc12)C1CC1`
Resp: 16.9 µM

Req: Param item: `CCOC(=O)Cc1nc2cc(F)c(F)cc2[nH]c1=O`
Resp: > 100 µM

Req: Same thing, different compound: `CC1=CC(C)(C)N=C2SC(c3ccc(N)cc3)=NN12`
Resp: > 100 µM

Req: Next record, please: CCOC(=O)c1ccc(N[C@@H]2c3cc4c(cc3C(c3cc(OC)c(O)c(OC)c3)[C@H]3C(=O)OCC32)OCO4)cc1O (stereo not given in full)
Resp: 8.75 µM

Req: Now give it for CCOC(C)O[C@H]1C(=O)OCC1(C)C (stereo not given in full) too.
Resp: > 100 µM

Req: Repeat for the following compound: `COc1ccccc1CNCCCN1C(=O)c2ccc3c4c(ccc(c24)C1=O)C(=O)N(CCCNCCNCCCN)C3=O`
Resp: 5.65 µM

Req: Also need `C1=Cc2cc3c(c4nccc(c24)N1)OCO3` , thanks.
Resp: > 100 µM

Req: Do the same for CCN(CC)C1CC(O[C@H]2C[C@](O)(C(=O)CO)Cc3c(O)c4c(c(O)c32)C(=O)c2c(OC)cccc2C4=O)OC(C)C1O (stereo not given in full) please
Resp: 0.77 µM

Req: Item: `O=[N+]([O-])c1ccc(S(=O)(=O)n2c3ccc(Br)cc3c3nc4ccccc4nc32)cc1`
Resp: > 100 µM

Req: Next: CCOC(=O)N[C@@H]1C(CC(=O)OC)O[C@H]2OC(C)(C)O[C@H]21 (stereo not given in full)
Resp: > 100 µM

Req: Note, next up: `O=C(NCP(=O)(c1ccccc1)c1ccccc1)OCc1ccccc1`
Resp: > 100 µM

Req: Lookup `CO/C=C(/C(=O)OC)c1ccccc1COc1cccc(C(F)(F)F)c1`
Resp: 55 µM

Req: Now this one: `CN(C)CCCN=c1c2ccccc2n(O)c2ccccc12`
Resp: > 100 µM

Req: Now consider `c1cnn(CN(Cn2cccn2)Cn2cccn2)c1` .
Resp: > 100 µM

Req: Try the compound CC1(C)C[C@@H]2C1CCC1(C)CC2(O)CC[C@H]1O (stereo not given in full)
Resp: > 100 µM

Req: Entry `O=C(CCc1nc(=S)[nH][nH]1)Nc1ccccc1Cl` please
Resp: > 100 µM

Req: Item: `O=C(N/N=C\C=C\c1ccc([N+](=O)[O-])o1)C(=O)N/N=C\C=C\c1ccc([N+](=O)[O-])o1`
Resp: 55 µM

Req: Param item: `Cc1ccc(NC(=O)c2cccc(C(C)(C)C#N)c2)cc1Nc1ccc2ncn(C)c(=O)c2c1`
Resp: > 100 µM

Req: Another compound to look at: `CC(C)=C[C@H]1CCC2(OCCO2)[C@]1(C)COCc1ccccc1`
Resp: 52.7 µM

Req: `O=S(=O)(c1ccc(NC(=S)NC23CC4CC(CC(C4)C2)C3)cc1)N1CCCCC1` ?
Resp: 21.1 µM

Req: Another compound: `COC(=O)C1=CS/C(=C2\S[C@@H]3[C@H](S2)[C@H]2C=C[C@@H]3C2)S1`
Resp: > 100 µM

Req: // next record `COc1cc(/C=C/c2ccc(OC)c(O)c2)cc(OC)c1`
Resp: 4.88 µM

Req: Would you mind doing `CC1=[N+]([O-])c2ccccc2C(=O)C1=O` as well?
Resp: > 100 µM

Req: Then what about the compound `CCc1nc(N)nc(N)c1-c1ccc(NC)c([N+](=O)[O-])c1` ?
Resp: > 100 µM

Req: Now consider `CCOC(=O)CNC(=O)N(CC)C12CC3CC(CC(C3)C1)C2` and answer again.
Resp: 287 µM

Req: Next entry: `O=C(c1cccc2ccccc12)N1CCC(C2CCN(C(=O)c3cccc4ccccc34)CC2)CC1`
Resp: > 100 µM
